# System: Calu-3
# PROCEDURE TEXT: cell viability relative to DMSO; higher = less toxic
# STATED CONDITIONS: 72 h; 100 nM
Structures can show the parent of a compound that is named as a salt.
VALUE KIND: cell viability (%)
Your answer should be a plain number; it is taken to be in %.

Prompt: Looking for the measured cell viability of "CN(C)CCCn1cc(C2=C(c3c[nH]c4ccccc34)C(=O)NC2=O)c2ccccc21" , can you help?
Response: 92

Prompt: # iterate: "CC(=O)N[C@H](Cc1ccc2ccccc2c1)C(=O)N[C@H](Cc1ccc(Cl)cc1)C(=O)N[C@H](Cc1cccnc1)C(=O)N[C@@H](CO)C(=O)N[C@@H](Cc1ccc(NC(=O)[C@@H]2CC(=O)NC(=O)N2)cc1)C(=O)N[C@H](Cc1ccc(NC(N)=O)cc1)C(=O)N[C@@H](CC(C)C)C(=O)N[C@@H](CCCCNC(C)C)C(=O)N1CCC[C@H]1C(=O)N[C@H](C)C(N)=O"
Response: 91.7

Prompt: # iterate: C/C=C(/C)C(=O)O[C@H]1C(C)=C[C@]23C(=O)[C@@H](C=C(CO)[C@@H](O)[C@]12O)[C@H]1[C@@H](C[C@H]3C)C1(C)C [ingenol-mebutate]
Response: 96.6

Prompt: # iterate: "CCCCCOc1ccc(-c2cc(-c3ccc(C(=O)N[C@H]4C[C@@H](O)[C@@H](O)NC(=O)[C@@H]5[C@@H](O)[C@@H](C)CN5C(=O)[C@H]([C@H](O)CC(N)=O)NC(=O)[C@H]([C@H](O)[C@@H](O)c5ccc(O)c(OS(=O)(=O)O)c5)NC(=O)[C@@H]5C[C@@H](O)CN5C(=O)[C@H]([C@@H](C)O)NC4=O)cc3)no2)cc1"
Response: 98.3

Prompt: # iterate: "CC(=O)[C@H]1CC[C@H]2[C@@H]3CC[C@H]4C[C@H](O)CC[C@]4(C)[C@H]3CC[C@]12C"
Response: 95

Prompt: # iterate: "Clc1ccc(Nc2nnc(Cc3ccncc3)c3ccccc23)cc1"
Response: 97.5

Prompt: # iterate: CN1[C@@H]2C[C@@H](OC(=O)[C@H](CO)c3ccccc3)C[C@H]1[C@@H]1O[C@@H]12 [SCOPOLAMINE HYDROBROMIDE]
Response: 91.6

Prompt: # iterate: "COc1cc(N2CCC(N3CCN(C)CC3)CC2)ccc1Nc1ncc(Cl)c(Nc2ccccc2S(=O)(=O)C(C)C)n1"
Response: 90.2

Prompt: # iterate: "COc1cc2c(cc1OC)CN(CCc1ccc(NC(=O)c3cccc4c(=O)c5cccc(OC)c5[nH]c34)cc1)CC2"
Response: 99.6

Prompt: # iterate: CCCNCC(O)COc1ccccc1C(=O)CCc1ccccc1 (stereo unspecified)
Response: 103

Prompt: # iterate: "CCS(=O)(=O)N(Cc1cccnc1)c1cccc(-c2ccc(C#N)cc2)c1"
Response: 97.1

* * *

Assign cell viability to each entry below.
# System: Vero E6
# PROCEDURE TEXT: cell viability relative to DMSO; higher = less toxic
# STATED CONDITIONS: 72 h; 10 nM
Your answer should be a plain number; it is taken to be in %.

Prompt: Missing value: cell viability, Vero E6, entry "O=C(Nc1ccccc1)N1CCN(c2nc(-c3ccccc3)ns2)CC1" . Fill in?
Response: 96.3

Prompt: # iterate: "Cc1nnc(C(=O)NC(C)(C)c2nc(C(=O)NCc3ccc(F)cc3)c(O)c(=O)n2C)o1"
Response: 99.3

Prompt: # iterate: c1cc(CN2CCCCC2)cc(OCCCNc2nc3ccccc3s2)c1 [zolantidine]
Response: 103

Prompt: # iterate: "CCCCCCCCCCCCCC[C@@H](O)[C@@H](O)[C@@H](N)CO"
Response: 98.2

Prompt: # iterate: C#CCN1C(C)=C(C(=O)OC)C(c2cccc([N+](=O)[O-])c2)C(C(=O)OCC)=C1C (centres undefined)
Response: 99.6

Prompt: # iterate: "C[C@H]1C[C@@H]2[C@H]([C@@H](O)C[C@@]3(C)[C@H]2CC[C@]3(O)C(=O)CO)[C@@]2(C)C=CC(=O)C=C12"
Response: 103

Prompt: # iterate: "CCN[C@@H](C)Cc1cccc(C(F)(F)F)c1"
Response: 92.7

Prompt: # iterate: "COC(=O)C1=C(C)N(C)C(C)=C(C(=O)OC)C1c1ccc(C(F)(F)F)cc1"
Response: 92.5

Prompt: # iterate: CN1C(=O)CC(C)(c2ccccc2)C1=O (centres undefined) [methsuximide]
Response: 97.1
